Hey, just so you know, these numbers are from patent US8673849B2.

biological target: integrin proteins on the cell surface
Where no end group is shown, it is not given here.
ENDPOINT LABEL: IC50 (µM), inhibition of human rotavirus Wa infection of MA-104 cells
Kindly provide the numeric value in µM only, without the unit symbol.

Report IC50 (µM), inhibition of human rotavirus Wa infection of MA-104 cells, nothing else, for this binder: SHRGDVFI (not fully specified) [Bo-RGD: S-H-R-G-D-V-F-I]
395

Report IC50 (µM), inhibition of human rotavirus Wa infection of MA-104 cells, nothing else, for this binder: EVRGDVFP (not fully specified) [Hu-RGD: E-V-R-G-D-V-F-P]
104

Report IC50 (µM), inhibition of human rotavirus Wa infection of MA-104 cells, nothing else, for this binder: QNDGECHVIDDSHRGDVFTQ (not fully specified) [peptidic compound of SEQ ID NO: 1 (QNDGECHVIDDSHRGDVFTQ)]
1.72

Report IC50 (µM), inhibition of human rotavirus Wa infection of MA-104 cells, nothing else, for this binder: QNDGECHV (not fully specified) [peptidic compound of SEQ ID NO: 3 (Q-N-D-G-E-C-H-V)]
17.3
